Data credit: ChEMBL document CHEMBL5053492

measuredTarget: Nuclear receptor ROR-gamma (Homo sapiens)
Sequence (P51449 whole entry): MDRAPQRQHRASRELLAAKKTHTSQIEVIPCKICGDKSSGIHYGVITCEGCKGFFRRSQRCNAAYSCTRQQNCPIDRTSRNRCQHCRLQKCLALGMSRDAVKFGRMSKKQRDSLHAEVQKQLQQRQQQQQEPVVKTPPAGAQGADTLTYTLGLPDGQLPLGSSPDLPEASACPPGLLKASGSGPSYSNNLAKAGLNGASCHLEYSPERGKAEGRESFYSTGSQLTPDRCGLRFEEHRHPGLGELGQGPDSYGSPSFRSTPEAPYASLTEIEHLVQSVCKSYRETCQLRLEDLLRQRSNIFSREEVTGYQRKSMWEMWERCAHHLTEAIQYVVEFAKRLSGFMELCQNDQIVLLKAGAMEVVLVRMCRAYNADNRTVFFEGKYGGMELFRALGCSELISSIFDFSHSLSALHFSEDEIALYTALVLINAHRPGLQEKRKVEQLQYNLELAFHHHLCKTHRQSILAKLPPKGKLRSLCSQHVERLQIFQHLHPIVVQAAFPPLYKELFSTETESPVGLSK
experimentDescription: Agonist activity at APC-labeled RORgammat LBD (unknown origin) incubated for 1 hr in presence of europium labeled co-activator SRC1 by dual FRET assay
measuredProperty: EC50 (nM)
Report only the number, with the unit nM understood.

Req: Endpoint output: EC50 of CCCN(CCc1ccccc1)c1ccc(NC(=O)Cc2ccc(S(=O)(=O)CC)cc2)cc1 . Value?
Resp: 11.6

Req: Endpoint output: EC50 of CCCN(Cc1ccc(NC(=O)Cc2ccc(S(=O)(=O)CC)cc2)cc1)Cc1cccnc1 . Value?
Resp: 40.2

Req: Endpoint output: EC50 of CCN(Cc1ccccc1)Cc1ccc(NC(=O)Cc2ccc(S(=O)(=O)CC)cc2)cc1 . Value?
Resp: 36.3

Req: Endpoint output: EC50 of CCCN(Cc1ccc(NC(=O)Cc2ccc(S(=O)(=O)CC)cc2)cc1)Cc1ccccc1F . Value?
Resp: 9.4
